The measurements presented in this section are drawn from paper PMC12416549.

Biological target: T1, TNFR1 (Homo sapiens, UniProt P19438)
T1 chain: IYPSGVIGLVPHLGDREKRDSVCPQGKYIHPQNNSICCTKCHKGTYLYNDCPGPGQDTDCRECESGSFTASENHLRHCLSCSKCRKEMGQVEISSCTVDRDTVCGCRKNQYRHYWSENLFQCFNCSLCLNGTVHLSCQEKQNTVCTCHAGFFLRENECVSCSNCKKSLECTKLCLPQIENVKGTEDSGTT
Experiment: yeast display SC50
MEASUREMENT TYPE: apparent Kd (screen) (nM)
Numbers only, in nM.

{"BINDER": "L24W (designed binder) MTLQELLREEALRRAEAEAFRYAWELLAEKFPEQKEYLLDLAEEIESQIRSLSGVDVEDVRKFLDKEWAWVKELLAEHPAELAEVEAARAARLAELRAEVEAKVAA", "MEASUREMENT TYPE": "apparent Kd (screen)", "OBSERVED RESULT": 4.83}
{"BINDER": "K62N (designed binder) MTLQELLREEALRRAEAEAFRYALELLAEKFPEQKEYLLDLAEEIESQIRSLSGVDVEDVRNFLDKEWAWVKELLAEHPAELAEVEAARAARLAELRAEVEAKVAA", "MEASUREMENT TYPE": "apparent Kd (screen)", "OBSERVED RESULT": 0.49}
{"BINDER": "F20V (designed binder) MTLQELLREEALRRAEAEAVRYALELLAEKFPEQKEYLLDLAEEIESQIRSLSGVDVEDVRKFLDKEWAWVKELLAEHPAELAEVEAARAARLAELRAEVEAKVAA", "MEASUREMENT TYPE": "apparent Kd (screen)", "OBSERVED RESULT": 0.49}

Proceed to the following item.
Name the recorded apparent Kd (screen) of the binder listed here: V85C (designed binder) MTLQELLREEALRRAEAEAFRYALELLAEKFPEQKEYLLDLAEEIESQIRSLSGVDVEDVRKFLDKEWAWVKELLAEHPAELAECEAARAARLAELRAEVEAKVAA
0.446
